- Tested on: IL-8 release in PBMCs
- assay summary: LPS-induced IL-8 release in PBMC cells (assay (b))
- Type: cell-based
- reported conditions: Homo sapiens, LPS-stimulated PBMCs
Where a name gives a salt, the structure may show the parent alone.
endpoint: IC50 (nM)
Your answer is read as nM, so omit the unit and give the number.

In the examples that follow, each entry is paired with its recorded IC50.
- compound: "COc1c(NC(=O)Nc2ccc(Oc3ccnc(Nc4cc(OCCOCCOCC(=O)O)cc(OC(F)F)c4)c3)c3ccccc23)cc(C(C)(C)C)cc1NS(C)(=O)=O [Example 28]"
  IC50 / nM: 20.6
- compound: "COc1cc(Nc2cc(Oc3ccc(NC(=O)Nc4cc(C(C)(C)C)cc(NS(C)(=O)=O)c4OC)c4ccccc34)ccn2)cc(OCCOCCOCc2cc(=O)o[nH]2)c1 [Example 18]"
  IC50 / nM: 29.3
- compound: "CCS(=O)(=O)Nc1cc(C(C)(C)C)cc(NC(=O)Nc2ccc(Oc3ccnc(Nc4cc(OC)cc(OCCOCCOCC(=O)O)c4)c3)c3ccccc23)c1OC [Example 16]"
  IC50 / nM: 16.3
- compound: "COc1cc(Nc2cc(Oc3ccc(NC(=O)Nc4cc(C(C)(C)C)cc(NS(C)(=O)=O)c4OC)c4ccccc34)ccn2)cc(C(=O)NCCOCCOCC(=O)O)c1 [Example 1, hydrochloride salt]"
  IC50 / nM: 115

Query (compound): COc1cc(Nc2cc(Oc3ccc(NC(=O)Nc4cc(C(C)(C)C)cc(NS(C)(=O)=O)c4OC)c4ccccc34)ccn2)cc(OCCOCCOCC(=O)O)c1 [Example 3] ; field requested: IC50
17.3

Ref: patent US10072034B2
